test description: Inhibition of bacterial Metallo-beta-lactamase IMP-1 (unknown origin) assessed as substrate hydrolysis using meropenem as substrate by UV-visible spectrometry analysis
Set-up: species or system Bacteria
measurement type: pKi
Formally, pKi is defined as -log10 of the concentration c, with c in mol/L.

Prompt: Entry S=c1[nH]nc(-c2ccccc2)n1CCSCCc1ccccc1 : reported pKi = ?
Response: 4.75

Prompt: Entry O=[N+]([O-])c1ccccc1CSCCn1c(-c2ccccc2)n[nH]c1=S : reported pKi = ?
Response: 4.72

Prompt: Entry S=c1[nH]nc(-c2ccccc2)n1CCSc1ccccc1 : reported pKi = ?
Response: 5.47

Prompt: Entry O=[N+]([O-])c1ccc(CSCCn2c(-c3ccccc3)n[nH]c2=S)cc1 : reported pKi = ?
Response: 5.44

Further cases:
Prompt: Entry Cn1cccc1-c1n[nH]c(=S)n1CCSCc1ccccc1 : reported pKi = ?
Response: 5.04

Prompt: Entry O=C(O)C(CSCCn1c(-c2ccccc2)n[nH]c1=S)c1ccccc1 (configuration not stated) : reported pKi = ?
Response: 4.46

Prompt: Entry Fc1ccc(CSCCn2c(-c3ccccc3)n[nH]c2=S)cc1 : reported pKi = ?
Response: 5.02

Prompt: Entry Fc1ccc(CSCCn2c(-c3ccccc3)n[nH]c2=S)c(F)c1 : reported pKi = ?
Response: 5.06

Prompt: Entry S=c1[nH]nc(-c2ccccc2)n1CCSCc1ccccc1 : reported pKi = ?
Response: 4.71

Prompt: Entry Nc1ccccc1SCCn1c(-c2ccccc2)n[nH]c1=S : reported pKi = ?
Response: 4.65

Prompt: Entry Fc1ccccc1CSCCn1c(-c2ccccc2)n[nH]c1=S : reported pKi = ?
Response: 4.92

Prompt: Entry Cc1ccccc1-c1n[nH]c(=S)n1CCSCc1ccccc1 : reported pKi = ?
Response: 4.36

====

System: HeLa
test description: Cytotoxicity against human HeLa cells assessed as LDH release measured after 24 hrs by CytoTox96 nonradioactive assay
Type: functional, cell-based
measurement type: pIC50
Formally, pIC50 is defined as -log10 of the concentration c, with c in mol/L.

Take a look at these entries with their results.
Prompt: Entry Cc1ccccc1-c1n[nH]c(=S)n1CCSCc1ccccc1 : reported pIC50 = ?
Response: 3.92

Prompt: Entry S=c1[nH]nc(-c2ccccc2)n1CCSCc1ccccc1 : reported pIC50 = ?
Response: 3.82

Further cases:
Prompt: Entry Fc1ccccc1CSCCn1c(-c2ccccc2)n[nH]c1=S : reported pIC50 = ?
Response: 3.78

====

Tested on: Bacteria
test description: Inhibition of bacterial New Delhi metallo-beta-lactamase 1 (unknown origin) assessed as substrate hydrolysis at 100 uM using meropenem as substrate by UV-visible spectrometry analysis
measurement type: inhibition (%)
The figure you give is taken to be in %; do not add the unit.

Take a look at these entries with their results.
Prompt: Entry O=C(O)CCSCCn1c(-c2ccccc2)n[nH]c1=S : reported inhibition = ?
Response: 59

Prompt: Entry S=c1[nH]nc(-c2ccccc2)n1CCOCc1ccccc1 : reported inhibition = ?
Response: 33

Prompt: Entry COc1ccc(O)c(-c2n[nH]c(=S)n2CCSCc2ccccc2)c1 : reported inhibition = ?
Response: 46

Prompt: Entry S=c1[nH]nc(-c2ccccc2)n1CCCSc1ccccc1 : reported inhibition = ?
Response: 42

Prompt: Entry Cn1cccc1-c1n[nH]c(=S)n1CCSCc1ccccc1 : reported inhibition = ?
Response: 75

Further cases:
Prompt: Entry O=C(O)C(SCCn1c(-c2ccccc2)n[nH]c1=S)c1ccccc1 (stereo unspecified) : reported inhibition = ?
Response: 40

Prompt: Entry O=C(O)CSCCn1c(-c2ccccc2)n[nH]c1=S : reported inhibition = ?
Response: 40
